Each entry below carries its reported pIC50.
TARGET_UNDER_TEST: Recombinant human IDO (Homo sapiens, UniProt P14902)
Sequence (P14902 whole entry): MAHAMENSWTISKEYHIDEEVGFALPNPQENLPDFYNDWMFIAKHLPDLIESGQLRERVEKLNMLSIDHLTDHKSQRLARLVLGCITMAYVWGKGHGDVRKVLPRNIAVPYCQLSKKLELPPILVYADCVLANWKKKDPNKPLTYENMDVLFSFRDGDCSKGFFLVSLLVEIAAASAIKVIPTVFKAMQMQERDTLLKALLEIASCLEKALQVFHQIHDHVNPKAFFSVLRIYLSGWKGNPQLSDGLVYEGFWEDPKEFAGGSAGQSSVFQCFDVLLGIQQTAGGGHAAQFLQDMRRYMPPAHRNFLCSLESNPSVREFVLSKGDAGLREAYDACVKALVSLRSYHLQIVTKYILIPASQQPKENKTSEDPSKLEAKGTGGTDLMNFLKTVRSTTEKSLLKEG
ASSAY_NOTES: Bridge-IT tryptophan fluorescence assay of human IDO-1 inhibition
CONDITIONS_USED: recombinant human IDO 7.5 nM, L-tryptophan
pIC50: −log10 of the molar value.

Example cases with answers are listed next.
OC(CC1c2cc(F)ncc2-c2cncn21)C1CCCCC1 (single isomer, unassigned) [Compound 24d] | > 7.00
OCC1CCC(F)(CCC2c3c(Cl)cccc3-c3cncn32)CC1 (single isomer, unassigned) [Compound 105a] | < 6.00
NC(=O)C1CCC(C(O)CC2c3ncccc3-c3cncn32)CC1 (single isomer, unassigned) [Compound 63d] | < 6.00

Then this compound:
Input: I'm curious: which pIC50 was measured for NC(=O)CC1CCC(F)(CCC2c3ccccc3-c3cncn32)CC1 (single isomer, unassigned) [Compound 112c] tested on Recombinant human IDO (Homo sapiens, UniProt P14902)?
Output: < 6.00

====

Let's look at some molecules and their measured IC50.
TARGET_UNDER_TEST: Recombinant human IDO (Homo sapiens)
ASSAY_NOTES: Bridge-IT tryptophan fluorescence assay of human IDO-1 inhibition
Assay type: biochemical
CONDITIONS_USED: recombinant human IDO 7.5 nM, L-tryptophan

The examples below pair each entry with its known result.
FC1(CCC2c3ncccc3-c3cncn32)CCOCC1 (single isomer, unassigned) [Compound 93a] | > 1000 nM
FC1(CCC2c3cnccc3-c3cncn32)CCCCC1 (single isomer, unassigned) [Compound 10b] | > 1000 nM
OC(CC1c2ncccc2-c2cncn21)C1CCC(C2(O)CC2)CC1 (single isomer, unassigned) [Compound 117d] | > 1000 nM
FC1(CCC2c3nc(C(F)(F)F)ccc3-c3cncn32)CCCCC1 (single isomer, unassigned) [Compound 76a] | > 1000 nM
NC(=O)CC1CCC(F)(CCC2c3c(Cl)cccc3-c3cncn32)CC1 (single isomer, unassigned) [Compound 113d] | < 100 nM

Input: Request the reported IC50 associated with OC1CCC(F)(CCC2c3cccc(F)c3-c3cncn32)CC1 (single isomer, unassigned) [Compound 35c]
Output: < 100 nM

Input: Form field: reported IC50 of OC(CC1c2ncncc2-c2cncn21)C1CCCCC1 (single isomer, unassigned) [Compound 67b]
Output: > 1000 nM

====

TARGET_UNDER_TEST: Recombinant human IDO (Homo sapiens)
ASSAY_NOTES: Bridge-IT tryptophan fluorescence assay of human IDO-1 inhibition
CONDITIONS_USED: recombinant human IDO 7.5 nM, L-tryptophan
pIC50: −log10 of the molar value.
READOUT_LABEL: pIC50

See these solved cases before continuing.
Fc1ccc2c(n1)C(CCC1(F)CCCCC1)n1cncc1-2 (stereo not shown) | 6.00 to 7.00
COc1ccc2c(n1)C(CCC1(F)CCC3(CC1)CC3)n1cncc1-2 (single isomer, unassigned) [Compound 54b] | < 6.00
NC(=O)CC1CCC(F)(CCC2c3c(Cl)cccc3-c3cncn32)CC1 (single isomer, unassigned) [Compound 113c] | < 6.00

Input: For the compound shown here, OC(CC1c2cc(F)ncc2-c2cncn21)C1CCCCC1 (single isomer, unassigned) [Compound 24b] , give the reported pIC50.
Output: < 6.00

Input: So what does the record say about pIC50 for NC(=O)CC1CCC(F)(CCC2c3c(Cl)cccc3-c3cncn32)CC1 (single isomer, unassigned) [Compound 113a] ?
Output: > 7.00

Input: Give its pIC50 value. Item: OC(CC1CCCCC1)CC1c2ncccc2-c2cncn21 (single isomer, unassigned) [Compound 62d]
Output: < 6.00

Input: Would you kindly share the measured pIC50 for FC(CC1c2ccccc2-c2cncn21)C1CCCCC1 (mixture of isomers) [Compound 108a] ?
Output: 6.00 to 7.00
